Where do these numbers come from? They come from PubChem BioAssay (NCI).

# Test summary: NCI Yeast Anticancer Drug Screen. Data for the rad50 strain (AID 155);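 note: 0% = growth of vehicle-only cultures of the same strain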
# Study conditions: S. cerevisiae rad50 strain growth inhibition; at 50.0 µM; active compounds read high
# Protocol: Growth inhibition of yeast strains with defined genetic alterations is measured as a screen for potential anti-cancer activity. Selected strains with alterations in DNA damage repair or cell cycle control were exposed to compounds and growth inhibition was measured relative to vehicle treated controls. The strain used in this assay is rad50
Compounds without any hit were thinned out: in the full panel of roughly 79,000, 15% have a hit.

Molecule	Unit of measurement	growth inhibition
CC[C@@H]1C[C@H]2CC3c4[nH]c5ccc(O)cc5c4CCN(C2)C31	%	3.4
COC1=CC=C2[C@@H]3Cc4ccc(OC)c5c4[C@]2(CCN3CCCl)C1O5 (stereo not given in full)	%	27
COC(=O)C1=CO[C@@H](C)[C@@H]2CN3CCc4c([nH]c5cc(OC)ccc45)[C@@H]3C[C@H]12	%	-0.2
S=C([S-])N1CCCCC1.S=C([S-])N1CCCCC1.[Zn]	%	79.5
COc1nc(N2CCNCC2)nc2c1CCCC2	%	4.85
NC(=O)CCl	%	6
O=[P+](O)c1cccnc1	%	6.6
NC(=O)C[CH2][Sn]([Cl])([Cl])[CH2]CC(N)=O	%	-5.65
[CH3][Sn]1([CH3])[O]C(=O)C(=O)[O]1	%	12.2
O=C(O)C1C2c3ccccc3C(c3ccccc32)C1C(=O)NCC1CC1 (stereo not given)	%	51.5
Cc1ccc(N[N+](=O)[O-])nc1	%	-7.25
CC1C(C)(C)P(=O)(Oc2cccc3cccnc23)C1(C)C (stereo not given)	%	83.3
COc1ccc2[nH]cc(CCN(C)C)c2c1	%	4.8
CN(C)c1cccc(NC2=NCCO2)c1	%	-21.3
Cn1c(=O)oc(=O)c2ccccc21	%	-0.45
O=C(OC12CCN(CC1)CC2)c1ccccc1	%	-7.55
CC(C)CNC12CN3CN(CN(C3)C1)C2	%	-9.25
C1CCN2CC3CONC3C2C1 (stereo not given)	%	-11.3
c1ccc2c(c1)ccc1sc3c([n+]12)CCC3	%	-0.9
c1ccc(OP(Oc2ccccc2)(c2ccccc2)(c2ccccc2)c2ccccc2)cc1	%	6.05
CC(C)COC(=O)Cc1ccccc1	%	23.2
CCCCN(CCCC)C(=O)C1C=C2c3cccc4[nH]cc(c34)CC2N(C)C1 (stereo not given)	%	-0.85
CCC[P+](CCC)(CCC)CCCCCCCCCC[P+](CCC)(CCC)CCC	%	-2.65
O=c1c2cc(Br)cc(Br)c2nc(CCCl)n1-c1ccc(O)c([N+](=O)[O-])c1	%	-2
COc1cc(C2c3cc4c(cc3OC(C)(O)C2C)OCO4)cc(OC)c1OC (stereo not given)	%	8.8
